testedSystem: HCV genotype 1b (BK) NS3 modified enzyme with a R155K mutation (Hepatitis C virus genotype 1b, UniProt P26663, R1181K)
Construct: HCV genotype 1b (BK) NS3 modified enzyme
assayComment: HCV NS3 protease time-resolved fluorescence (TRF) assay, genotype 1b R155K
Format: biochemical
assayContext: Ki 1b R155K, genotype 1b (BK) NS3 R155K; single value
pKi: −log10 of the molar value.
quantityKind: pKi

C=C[C@@H]1C[C@]1(NC(=O)[C@@H]1C[C@@H]2CN1C(=O)[C@H](C(C)(C)C)NC(=O)O[C@@H]1CCC[C@H]1CC/C=C/Cc1c(nc3ccccc3c1OCCn1cccc1)O2)C(=O)NS(=O)(=O)C1CC1 [Example 52]	8.96
C=C[C@@H]1C[C@]1(NC(=O)[C@@H]1C[C@@H]2CN1C(=O)[C@H](C1CCCCC1)NC(=O)O[C@@H]1C[C@H]1CCCCCc1c(nc3ccccc3c1OC1CCN(C)CC1)O2)C(=O)NS(=O)(=O)C1(C)CC1 [Example 211]	10.48
C=C[C@@H]1C[C@]1(NC(=O)[C@@H]1C[C@@H]2CN1C(=O)[C@H](C(C)(C)C)NC(=O)O[C@@H]1C[C@H]1CCCCCc1c(nc3ccccc3c1OCC1CCN(CC)CC1)O2)C(=O)NS(=O)(=O)C1(C)CC1 [Example 227]	10.02
C=C[C@@H]1C[C@]1(NC(=O)[C@@H]1C[C@@H]2CN1C(=O)[C@H](C1CCCC1)NC(=O)O[C@@H]1CCC[C@H]1CC/C=C/Cc1c(nc3ccccc3c1OCCCN1CCCC1)O2)C(=O)NS(=O)(=O)C1(C)CC1 [Example 54]	10.70
O=C1N[C@@H](C2CCCC2)C(=O)N2C[C@@H](C[C@H]2C(=O)N[C@]2(C(=O)NS(=O)(=O)C3CC3)C[C@H]2C2CC2)Oc2nc3ccccc3c(O)c2C/C=C/CC[C@@H]2CCC[C@H]2O1 [Example 21]	9.29
C=C[C@@H]1C[C@]1(NC(=O)[C@@H]1C[C@@H]2CN1C(=O)[C@H](C1CCCC1)NC(=O)O[C@@H]1C[C@H]1CCCCCc1c(nc3ccccc3c1OC)O2)C(=O)NS(=O)(=O)C1CC1 [Example 28]	9.15
C=C[C@@H]1C[C@]1(NC(=O)[C@@H]1C[C@@H]2CN1C(=O)[C@H](C(C)(C)C)NC(=O)O[C@@H]1CCC[C@H]1CCCCCc1c(nc3ccccc3c1OCCN1CCOCC1)O2)C(=O)NS(=O)(=O)N1CCCC1 [Example 109]	8.39
C=C[C@@H]1C[C@]1(NC(=O)[C@@H]1C[C@@H]2CN1C(=O)[C@H](C1(C)CCCCC1)NC(=O)O[C@@H]1C[C@H]1CCCCCc1c(nc3ccccc3c1OCCN1CCOCC1)O2)C(=O)NS(=O)(=O)C1(C)CC1 [Example 123]	9.31
C=C[C@@H]1C[C@]1(NC(=O)[C@@H]1C[C@@H]2CN1C(=O)[C@H](C1CCCC1)NC(=O)O[C@@H]1CCC[C@H]1CC/C=C/Cc1c(nc3ccccc3c1OCC(F)(F)CO)O2)C(=O)NS(=O)(=O)C1CC1 [Example 73]	9.85

----------
testedSystem: HCV NS3 protease genotype 3a (3A-1) (Hepatitis C virus genotype 3a)
assayComment: HCV NS3 protease time-resolved fluorescence (TRF) assay, genotype 3a
Assay type: biochemical
assayContext: Ki 3a
pKi: −log10 of the molar value.
Item-by-item account of pKi
quantityKind: pKi

C=C[C@@H]1C[C@]1(NC(=O)[C@@H]1C[C@@H]2CN1C(=O)[C@H](C1CCCC1)NC(=O)O[C@@H]1CCC[C@H]1CC/C=C/Cc1c(nc3ccccc3c1OP(=O)(OCC)OCC)O2)C(=O)NS(=O)(=O)C1CC1 [Example 38]	7.03
C=C[C@@H]1C[C@]1(NC(=O)[C@@H]1C[C@@H]2CN1C(=O)[C@H](C(C)(C)C)NC(=O)O[C@@H]1CCC[C@H]1CC/C=C/Cc1c(nc3ccccc3c1OCCCN1CCCCC1)O2)C(=O)NS(=O)(=O)C1(C)CC1 [Example 59]	9.35

----------
Item-by-item account of Ki
testedSystem: HCV genotype 1b (BK) NS3 modified enzyme with a R155K mutation (Hepatitis C virus genotype 1b, UniProt P26663, R1181K)
Construct: HCV genotype 1b (BK) NS3 modified enzyme
assayComment: HCV NS3 protease time-resolved fluorescence (TRF) assay, genotype 1b R155K
Format: biochemical
assayContext: Ki 1b R155K, second of two values printed in the cell (not explained)
quantityKind: Ki (nM)

C=C[C@@H]1C[C@]1(NC(=O)[C@@H]1C[C@@H]2CN1C(=O)[C@H](C(C)(C)C)NC(=O)O[C@@H]1C[C@H]1CCCCCc1c(nc3ccccc3c1-c1ccccn1)O2)C(=O)NS(=O)(=O)C1(C)CC1 [Example 245]	1.41
C=C[C@@H]1C[C@]1(NC(=O)[C@@H]1C[C@@H]2CN1C(=O)[C@H](C(C)(C)C)NC(=O)O[C@@H]1C[C@H]1CCCCCc1c(nc3ccccc3c1-c1cccnc1)O2)C(=O)NS(=O)(=O)C1(C)CC1 [Example 246]	1.14

----------
testedSystem: HCV genotype 1b (BK) NS3 modified enzyme with a R155K mutation (Hepatitis C virus genotype 1b, UniProt P26663, R1181K)
Construct: HCV genotype 1b (BK) NS3 modified enzyme
assayComment: HCV NS3 protease time-resolved fluorescence (TRF) assay, genotype 1b R155K
Type: biochemical
assayContext: Ki 1b R155K, genotype 1b (BK) NS3 R155K; single value
pKi: −log10 of the molar value.
quantityKind: pKi

C=C[C@@H]1C[C@]1(NC(=O)[C@@H]1C[C@@H]2CN1C(=O)[C@H](C(C)(C)C)NC(=O)O[C@@H]1CCC[C@H]1CC/C=C/Cc1c(nc3ccccc3c1OCCCOCCOC)O2)C(=O)NS(=O)(=O)C1(C)CC1	10.05
C=C[C@@H]1C[C@]1(NC(=O)[C@@H]1C[C@@H]2CN1C(=O)[C@H](C1CCCCC1)NC(=O)O[C@@H]1C[C@H]1CCCCCc1c(nc3ccccc3c1OCCCN1CCC(S(C)(=O)=O)C1)O2)C(=O)NS(=O)(=O)C1(C)CC1 (stereo partly drawn)	9.96
C=C[C@@H]1C[C@]1(NC(=O)[C@@H]1C[C@@H]2CN1C(=O)[C@H](C1CCCC1)NC(=O)O[C@H]1C[C@@H]1CC/C=C/Cc1c(nc3ccccc3c1OC)O2)C(=O)NS(=O)(=O)C1CC1	8.48

----------
testedSystem: HCV NS3 protease genotype 3a (3A-1) (Hepatitis C virus genotype 3a, UniProt Q81258)
assayComment: HCV NS3 protease time-resolved fluorescence (TRF) assay, genotype 3a
Assay type: biochemical
assayContext: Ki 3a
Counter-ions that a name gives are not always drawn.
quantityKind: Ki (nM)

C=C[C@@H]1C[C@]1(NC(=O)[C@@H]1C[C@@H]2CN1C(=O)[C@H](C1CCCC1)NC(=O)O[C@@H]1CCC[C@H]1CCCCCc1c(nc3ccccc3c1OCC)O2)C(=O)NS(=O)(=O)C1CC1	9.1
C=C[C@@H]1C[C@]1(NC(=O)[C@@H]1C[C@@H]2CN1C(=O)[C@H](C(C)(C)C)NC(=O)O[C@@H]1CCC[C@H]1CC/C=C/Cc1c(nc3ccccc3c1OCCCN1CCOCC1)O2)C(=O)NS(=O)(=O)C1(C)CC1	1
CN1CCN(CCCOc2c3c(nc4ccccc24)O[C@@H]2C[C@H]4C(=O)N[C@]5(C(=O)NS(=O)(=O)C6(C)CC6)C[C@H]5/C=C\CCCCC[C@H](NC(=O)O[C@@H]5C[C@H]5CCC/C=C/3)C(=O)N4C2)CC1	1.2
C=C[C@@H]1C[C@]1(NC(=O)[C@@H]1C[C@@H]2CN1C(=O)[C@H](C(C)(C)C)NC(=O)O[C@@H]1CCC[C@H]1CC/C=C/Cc1c(nc3ccccc3c1OCCCO)O2)C(=O)NS(=O)(=O)C1CC1	0.59
C=C[C@@H]1C[C@]1(NC(=O)[C@@H]1C[C@@H]2CN1C(=O)[C@H](C(C)(C)C)NC(=O)O[C@@H]1CCC[C@H]1CCCCCc1c(nc3ccccc3c1OCCCN1CCOCC1)O2)C(=O)NS(=O)(=O)C1(COC)CC1	5.5
C=C[C@@H]1C[C@]1(NC(=O)[C@@H]1C[C@@H]2CN1C(=O)[C@H](C(C)(C)C)NC(=O)O[C@@H]1C[C@H]1CCCCCc1c(nc3ccccc3c1OC[C@H]1CNCCO1)O2)C(=O)NS(=O)(=O)C1(C)CC1	1.4
C=C[C@@H]1C[C@]1(NC(=O)[C@@H]1C[C@@H]2CN1C(=O)[C@H](C1CCCC1)NC(=O)O[C@@H]1CCC[C@H]1CC/C=C/Cc1c(nc3ccccc3c1OCCCCO)O2)C(=O)NS(=O)(=O)C1CC1	1.6
C=C[C@@H]1C[C@]1(NC(=O)[C@@H]1C[C@@H]2CN1C(=O)[C@H](C(C)(C)C)NC(=O)O[C@@H]1CCC[C@H]1CCCCCc1c(nc3ccccc3c1OCCN1CCOCC1)O2)C(=O)NS(=O)(=O)N(C)CCOC	272
C=C[C@@H]1C[C@]1(NC(=O)[C@@H]1C[C@@H]2CN1C(=O)[C@H](C1CCCCC1)NC(=O)O[C@@H]1C[C@H]1CCCCCc1c(nc3ccccc3c1OC1CCN(CCF)CC1)O2)C(=O)NS(=O)(=O)C1(C)CC1 [Example 272, formate]	2.12
